Cited source: patent US20260250737A1

assay: Luciferase activity (brightness) of LuxSit-i variants; assay type: biochemical; settings: Table 3; combined substitutions; relative to LuxSit-i

{"columns": ["molecule", "Brightness improvement"],
 "data": [
  ["MBIO-155: LuxSit-i variant F9V_A85F_H87L_Q64W, SEQ ID NO: 4 (protein) MSEEQIRQVLRRFYEALDSGDADTAASLFHPGVTIHLWDGVTFTSREEFREWFERLFSTSKDAWREIKSLEVRGDTVEVHVQLHFTLNGQKHTVDLTHHWHFRGNRVTEVRVHINPTG", "Slight increase"],
  ["MBIO-154: LuxSit-i variant F9V_A85F_H87L, SEQ ID NO: 5 (protein) MSEEQIRQVLRRFYEALDSGDADTAASLFHPGVTIHLWDGVTFTSREEFREWFERLFSTSKDAQREIKSLEVRGDTVEVHVQLHFTLNGQKHTVDLTHHWHFRGNRVTEVRVHINPTG", "Slight increase"]
]}
